Measured self-splicing fitness (ln), listed per entry.
assay: self-splicing fitness, log relative to wild type (ln ratio); higher = more splicing; Tetrahymena group I intron in knt gene, E. coli kanamycin selection, DiMSum; sequences stand for … in CUCUCU…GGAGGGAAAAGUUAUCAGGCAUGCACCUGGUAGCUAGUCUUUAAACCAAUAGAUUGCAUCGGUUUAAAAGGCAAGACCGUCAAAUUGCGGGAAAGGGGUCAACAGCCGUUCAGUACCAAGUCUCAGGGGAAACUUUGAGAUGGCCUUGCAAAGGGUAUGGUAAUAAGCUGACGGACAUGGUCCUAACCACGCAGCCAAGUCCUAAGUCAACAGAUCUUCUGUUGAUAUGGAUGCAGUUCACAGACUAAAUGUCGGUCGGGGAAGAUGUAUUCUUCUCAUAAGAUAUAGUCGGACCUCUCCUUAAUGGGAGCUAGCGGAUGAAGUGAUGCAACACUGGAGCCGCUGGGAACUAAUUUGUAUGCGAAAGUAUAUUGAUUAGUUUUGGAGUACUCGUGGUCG; settings: 30 °C;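 note: selection with 25 µg/mL kanamycin versus none on LB agar overnight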

- sequence.record: "GACUAGCAAUAUUACGGCUG"
  self-splicing fitness (ln): -1.04
- sequence.record: "CCGAAGCAAUAUUACGAUGU"
  self-splicing fitness (ln): -3.33
- sequence.record: "UAGAAGCAAUAUUACGAAAG"
  self-splicing fitness (ln): -1.97
- sequence.record: "AUUAAGCAAUAUUACGGACA"
  self-splicing fitness (ln): -0.398
- sequence.record: "GGCAAGCAAUAUUACGUCAG"
  self-splicing fitness (ln): -4.5
- sequence.record: "GUCAAGCAAUAUUACGACUC"
  self-splicing fitness (ln): -1.73
- sequence.record: "AAAGAGCAAUAUUACGGCAC"
  self-splicing fitness (ln): -2.72
- sequence.record: "GCCUAGCAAUAUUACGUCAA"
  self-splicing fitness (ln): -2.16
- sequence.record: "CGUUAGCAAUAUUACGUAAG"
  self-splicing fitness (ln): -0.652
- sequence.record: "GGUCAGCAAUAUUACGACAU"
  self-splicing fitness (ln): 0.0683
- sequence.record: "GAAGAGCAAUAUUACGUGAC"
  self-splicing fitness (ln): -3.21
- sequence.record: "UGUGAGCAAUAUUACGUACA"
  self-splicing fitness (ln): -1.04
- sequence.record: "UCUAAGCAAUAUUACGCCCA"
  self-splicing fitness (ln): -1.48
- sequence.record: "CCUAAGCAAUAUUACGUACC"
  self-splicing fitness (ln): -4.63
